# System: Panc-1 (pancreas, carcinoma) cells
# Method Summary: Cell viability assay, CellTiter-Glo (Example 21)
# Assay type: cell-based, human
# Condition Label: 3.7 nM, 72 h treatment
# Method: Effect of the selected compounds on cancer cell viability was measured via CellTiter-Glo® luminescent cell viability assay (Promega, Madison, WI, USA) according to the manufacturer's instructions. Cells were plated onto a flat-bottomed, white 96 well plate (BRANDplates®, cat. no.: 781965). […] After the treatment, the luminescence signal was recorded using a microplate reader (BioTek Synergy 2 Multi-Mode Reader, BioTek, Winooski, VT, USA). […]
Measurement Kind: Panc-1 (pancreas, carcinoma) cell viability (% of control)

Compound: O=C1C2=C(CCN(Cc3cc(F)cc(F)c3)C2)N2CCN=C2N1Cc1ccc(Cl)cc1
Result: 99.7 ± 3.0 % of control
--
Compound: [N-]=[N+]=Nc1cccc(CN2CCC3=C(C2)C(=O)N(Cc2ccc(Cl)cc2)C2=NCCN23)c1
Result: 108.9 ± 10.2 % of control
--
Compound: O=C1C2=C(CCN(Cc3ccccc3)C2)N2CCN=C2N1Cc1ccc(C(F)(F)F)cc1 [I/1, reference compound]
Result: 105.8 ± 0.5 % of control
--
Compound: O=C1C2=C(CCN(Cc3cc(F)cc(F)c3)C2)N2CCN=C2N1Cc1ccc(C(F)(F)F)cc1
Result: 100.8 ± 3.4 % of control
--
Compound: [N-]=[N+]=Nc1cccc(CN2CCC3=C(C2)C(=O)N(Cc2ccc(C(F)(F)F)cc2)C2=NCCN23)c1
Result: 106.1 ± 7.3 % of control
--
Compound: O=C1C2=C(CCN(Cc3cccc(F)c3)C2)N2CCN=C2N1Cc1ccc(C(F)(F)F)cc1 [I/3, reference compound]
Result: 105.8 ± 4.0 % of control
--
Compound: O=C1C2=C(CCN(Cc3cc(F)cc(F)c3)C2)N2CCN=C2N1Cc1ccc(F)cc1
Result: 108.6 ± 7.6 % of control
--
Compound: O=C1C2=C(CCN(Cc3cccc(F)c3)C2)N2CCN=C2N1Cc1ccc(F)cc1 [I/6, reference compound]
Result: 107.8 ± 16.0 % of control
--
Compound: [N-]=[N+]=Nc1ccc(CN2C(=O)C3=C(CCN(Cc4cc(F)cc(F)c4)C3)N3CCN=C23)cc1
Result: 107.9 ± 11.5 % of control
